Reported values of folding stability dG for individual entries
B1: HEEH_KT_rd6_3546 (parent)
chain: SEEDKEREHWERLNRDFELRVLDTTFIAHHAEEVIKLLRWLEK

Variants of: B1
Experiment: folding stability dG (cDNA display proteolysis); higher = more stable
Conditions: PBS, room temperature
Give just the number in kcal/mol; leave the unit off.

1) L37R = 0.273

Given the variant E42F , what is its reported folding stability dG? 2.75

Given the variant L38M , what is its reported folding stability dG? 0.931

Values compiled from the MegaScale stability set (Tsuboyama et al. 2023).
